observation.type: melting point (°C)

molecule: Cc1csc2nc3cc(F)ccc3n12
melting point [°C]: 148
--
molecule: Cn1cnnc1C(O)(c1ccc(Cl)cc1)c1cc2c3c(c1)c(-c1cccc(Cl)c1)cc(=O)n3CCC2 (stereo not given)
melting point [°C]: 183
--
molecule: COc1cc(OC)c(C2=NC(NC(=O)Nc3ccccc3C)C(=O)N(C)c3ccccc32)c(OC)c1 (stereo not given)
melting point [°C]: 50
--
molecule: COc1ccc(-c2ccc3c(c2)CC[C@H]2N(C)C(=O)CC[C@]32C)cc1
melting point [°C]: 150
--
molecule: O=C(NC(CCc1ccccc1)c1nnc(NS(=O)(=O)c2ccccc2)o1)c1cccc2[nH]c(-c3ccncc3)nc12 (stereo not given)
melting point [°C]: 220

A. Fc1cccc2sc(S)nc12
B. O=[N+]([O-])c1cc([C@@H]2CO2)ccc1OCc1ccccc1
C. CCCCCC1=CCC(c2cc(F)cc(F)c2)C=C1 (stereo not given)
# rank by melting point, ascending (min first) Your reply should list the labels following the order given in the request. C, B, A

----------
Listing of entries alongside the reported melting point.

compound: CCOC(=O)C(NC(=O)c1ccccc1Cl)(c1nc(OC)cc(OC)n1)C(C)C (stereo not drawn)
melting point: 94 to 95 °C
--
compound: O=C(O)Cc1ccc(-n2cc(Cl)cn2)c(Cl)c1
melting point: 132 to 133 °C
--
compound: COCCCn1c2cc(Cl)ccc2n2c(C)nnc12
melting point: 136 °C

The recorded melting point for Cc1c(F)c(N2CCN(C=O)C(C)C2)cc2c1C(=O)C(C=O)CN2C1CC1 (stereo not drawn) is 148 to 150 °C

The recorded melting point for CC(C)(C)N1CC(c2cccc(C(F)(F)F)c2)OCC1=O (stereo not drawn) is 81 to 83 °C

The recorded melting point for CC(C)c1ccc(C(=O)N(C(=N)N)C(=O)c2ccc(C(C)C)c(S(C)(=O)=O)c2)cc1S(C)(=O)=O is 218 to 221 °C

The recorded melting point for O=C1CCN(c2ccncc2)CC1 is 101 to 104 °C

The recorded melting point for COC(=O)c1ccc(OCCNC(=O)C2Cc3ccccc3N2S(=O)(=O)c2ccc(-c3ccc(F)cc3)cc2)cc1 (stereo not drawn) is 70 to 72 °C

----------
Listing of entries alongside the reported melting point.

A selection of reference data follows.
compound: CCOC(=O)C(CC)Oc1ccc(-c2nc(-c3ccc(OC(CC)C(=O)OCC)cc3O)nc(-c3ccc(OC(CC)C(=O)OCC)cc3O)n2)c(O)c1 (stereo not given)
melting point: 101 to 105 °C

compound: c1ccc(N2CCN(CCCc3cccnc3)CC2)nc1
melting point: 51 to 52 °C

compound: NC(=O)N1Cc2ccccc2-c2ccccc2C1
melting point: 212 to 214 °C

compound: CN(C)C(=O)N1CCN(Cc2ccc3c(c2)-c2[nH]nc(-c4ccsc4)c2C3)CC1
melting point: 214 to 216 °C

compound: O=C1c2c(OCc3ccccc3)cccc2-c2nn(CCN(CCO)Cc3ccccc3)c3ccc(Cl)c1c23
melting point: 130 to 134 °C

The recorded melting point for NC1=NC2=NN(c3ccco3)NC2=C2N=CN(Cc3ccc(F)cc3)N12 is 266 to 268 °C

The recorded melting point for O=C(O)Cn1c(=O)c(=O)[nH]c2ccccc21 is > 300 °C

The recorded melting point for CCCc1ccc(C2c3c(C)c(N)c(C)c(C)c3OC2(C)C)cc1 (stereo not given) is 68 to 69 °C

The recorded melting point for COc1ccc(-c2cc3ccc(C(=O)O)cc3o2)cc1C12CC3CC(CC(C3)C1)C2 is 290 °C

----------
observation.type: melting point (°C)

compound: COC(=O)c1ccc2cc(C(=O)c3cc(OCc4ccc(F)cc4)c4c(c3)C(C)(C)CCC4(C)C)ccc2c1
observation.type: melting point
value.unit: °C
endpoint.result: 179
--
compound: COc1ccccc1C1(O)C(O)CCC2CN(Cc3ccccc3)CC21 (stereo not given)
observation.type: melting point
value.unit: °C
endpoint.result: 140

----------
observation.type: melting point

A selection of reference data follows.
compound: CCC(C(=O)OCC[Si](C)(C)C)c1ccccc1CCC(=O)c1cccc(C=Cc2ccc3ccc(Cl)cc3n2)c1 (stereo not given)
endpoint.result: 109 to 111 °C
--
compound: O=C1Cc2cc(Br)cnc2N1
endpoint.result: 250 °C

The recorded melting point for Fc1cc(F)cc(NC(=S)c2ccccn2)c1 is 140 to 142 °C

The recorded melting point for O=C(O)c1ccc(C(=O)N(Cc2ccccc2)S(=O)(=O)c2ccc(Br)cc2)cc1 is 193 to 194 °C

The recorded melting point for Cc1c(Cl)c(C(F)(F)F)nn1-c1cc(OS(C)(=O)=O)c(Cl)cc1F is 72 to 74.5 °C

The recorded melting point for CC1Cc2cc3c(cc2C(c2ccc([N+](=O)[O-])cc2)=NN1c1ncccn1)OCO3 (stereo not given) is 261 to 263 °C

The recorded melting point for CCCCOC(=O)c1c(Cl)nc(CCCC)n1Cc1ccc2oc(-c3ccccc3-c3nnn[nH]3)c(Br)c2c1 is 88 to 90 °C

The recorded melting point for CCOC(=O)c1cc2cccc(N(C)S(=O)(=O)c3cccs3)c2n1COC is 143 to 145 °C

The recorded melting point for Cc1nnc2n1-c1sc(CC(=O)N3CCOCC3)cc1C(c1ccccc1Cl)=NC2 is 143 to 144 °C

The recorded melting point for Cc1ccn(-c2nccc3[nH]c(=O)ccc23)n1 is > 300 °C

----------
observation.type: melting point

compound: CCOC(=O)Cn1c(-c2cc(Cl)ccn2)nc2cccnc21
melting point: 99 to 101 °C

compound: O=C1c2ccccc2C(=O)N1CCCN1CCN(c2ccccc2)CC1
melting point: 105 to 122 °C

compound: CCC(=O)C(CC)=NNc1ccccc1[N+](=O)[O-]
melting point: 96 to 97 °C

compound: NC(=O)c1cc2c(Oc3ccc(Cl)cc3)cncc2s1
melting point: 176 to 177 °C

The recorded melting point for COc1cc2c(cc1OCc1ccccc1)CC(C)(C)N=C2C is 87.9 to 90 °C

The recorded melting point for O=C(O)c1ccc(OCc2ccccc2)cc1OCc1ccccc1 is 123 to 124 °C

The recorded melting point for CSc1ncc(C#N)c(NC2CCCC2)n1 is 119 to 122 °C

The recorded melting point for CC(=O)OC(c1cccc(Cl)c1Cl)C(Cl)(Cl)C(F)(F)F (stereo unspecified) is 92 to 95 °C

----------
Listing of entries alongside the reported melting point.

A selection of reference data follows.
input.smiles: O=C(O)/C=C/c1ccc(OCc2ccccc2)cc1OCc1ccccc1
endpoint.result: 153 to 155 °C
--
input.smiles: CC(C)(C)[Si](C)(C)Oc1ccccc1-c1cc(-c2cccc([N+](=O)[O-])c2)c(C#N)c(NC(=O)c2cccs2)n1
endpoint.result: 106 to 108 °C
--
input.smiles: CC(=N)Nc1ccc2nc(-c3ccccc3)ncc2c1
endpoint.result: 162 to 164 °C

The recorded melting point for COc1ccc2[nH]c(=O)c(-c3nnn(Cc4cccc(OCc5ccc6ccccc6n5)c4)n3)cc2c1 is 213 to 214 °C

The recorded melting point for N#Cc1n[nH]c2nc(N3CCCNCC3)ccc12 is 196 to 197 °C

The recorded melting point for COc1ccc(COc2nc(Cl)c(C(C)C)c(OCc3ccc(OC)cc3)n2)cc1 is 69 to 70 °C

The recorded melting point for C#CCNC(=O)N1CC(Oc2ccc(Br)cc2)C1 is 120 to 122 °C

The recorded melting point for Nc1ncnc2c([C@@H]3N[C@H](CO)[C@@H](O)[C@H]3O)c[nH]c12 is 238 °C

The recorded melting point for Cc1ccc2[nH]c(=O)c(C#N)c(N3CCN(C(=O)c4cccs4)CC3)c2c1 is 269 °C

----------
observation.type: melting point

A selection of reference data follows.
compound: CC(=O)C(C)(C)CS(=O)(=O)c1ccccc1
melting point: 56 to 58 °C
--
compound: O=C1CCc2c(ccc3ccc(O)cc23)O1
melting point: 194 to 202 °C
--
compound: O=C(NCCc1cccs1)c1cc(Cl)cc(Cl)c1
melting point: 100 to 102 °C

The recorded melting point for OCC1OC(n2cnc3c(NC4Cc5ccccc5C4)ncnc32)C(O)C1O (stereo unspecified) is 166 to 168 °C

----------
observation.type: melting point

A selection of reference data follows.
compound: CCCCc1cnc(NCCCOc2cccc(CN3CCCCC3)c2)[nH]c1=O
melting point: 105 to 106 °C
--
compound: CC(=O)OC1CSC(Oc2cnccc2-c2ccncc2)C(OC(C)=O)C1OC(C)=O (stereo not given)
melting point: 185 °C
--
compound: O=Cc1ccc(-c2ccc(Cl)cc2)cc1
melting point: 108 to 112 °C
--
compound: COc1cccc2c1-c1ccc3c(c1C(O)O2)C(C)=CC(C)(C)N3 (stereo not given)
melting point: 184 to 185 °C

The recorded melting point for O=C1NC(=O)C2(C(=O)N(Cc3ccc(Cl)c(Cl)c3)c3ccccc32)N1C(=O)OCc1ccccc1 (stereo not given) is 215 to 217 °C
